Test system: SN12C
Assay: Cytotoxicity against human SN12C cells after 48 hrs by SRB assay
Assay type: functional
Details: read-out: TGI
observed property: TGI (µM)
Numbers only, in µM.

State recorded TGI for all listed molecules.
1. C#C[C@@]1(O)[C@@H](CO)O[C@@H](n2cc(F)c3c(N)ncnc32)[C@@H]1O
2. C#C[C@@]1(O)[C@@H](CO)O[C@@H](n2ccc3c(N)ncnc32)[C@@H]1O

Result string:
4.74
3.91

----------
Could you please report measured IC50 for the items listed next?
Test system: CCRF-CEM
Assay: Antiproliferative activity against human CEM cells after 72 hrs by Coulter counter method
Assay type: functional, cell-based
Answers are plain numbers, in µM.

[[record]]
line_notation = "C#C[C@@]1(O)[C@@H](CO)O[C@@H](n2cc(Br)c3c(Cl)ccnc32)[C@@H]1O"
experimental_result = 0.56


State recorded IC50 for all listed molecules.
1. C#C[C@@]1(O)[C@@H](CO)O[C@@H](n2cc(I)c3c(N)ccnc32)[C@@H]1O
2. C#C[C@@]1(O)[C@@H](CO)O[C@@H](n2cc(Cl)c3c(N)ncnc32)[C@@H]1O

Result string:
[0.31, 0.012]

Summary for this molecule, CC[C@@]1(O)[C@@H](CO)O[C@@H](n2cc(Cl)c3c(N)ncnc32)[C@@H]1O : IC50 is 2.6

Every entry's value here was drawn from ChEMBL document CHEMBL4270599.
